# assay target: (Homo sapiens)
# Construct: human IGF1R kinase domain residues M954-C1367; made in house; host or cells: baculovirus expression (insect cells)
# test protocol: IGF1R kinase assay (LCCA), IGF 0P
# Format: biochemical
# run conditions: IGF1R kinase LCCA assay, IGF 0P
Entries annotated with measured IC50

Record excerpt, results attached:
sample smiles	IC50
CC(=O)NCC=CCn1cc(-c2cccc(OCc3ccccc3)c2)c2c(N)ncnc21	> 5000 nM
CCN(CC)CCNC(=O)CCc1ccc(Nc2ncc(Br)c(Nc3cc(C)on3)n2)cc1	500 to 5000 nM

[Q] # get_value(readout= IC50, system= (Homo sapiens)) for "c1ccc(-c2cc(CNc3nc(Nc4cc(C5CC5)n[nH]4)cc(OCCN4CCCC4)n3)on2)cc1"
[A] 50 to 500 nM

[Q] Check "CC(C)c1cc(CNc2nc(Nc3cc(C4CC4)[nH]n3)cc(N3CCN[C@H](C)C3)n2)on1" too.
[A] 50 to 500 nM

###

# assay target: IGF 3P (Homo sapiens, UniProt P08069)
# Construct: human IGF1R kinase domain residues M954-C1367; made in house; host or cells: baculovirus expression (insect cells)
# Sequence (P08069 954-1367): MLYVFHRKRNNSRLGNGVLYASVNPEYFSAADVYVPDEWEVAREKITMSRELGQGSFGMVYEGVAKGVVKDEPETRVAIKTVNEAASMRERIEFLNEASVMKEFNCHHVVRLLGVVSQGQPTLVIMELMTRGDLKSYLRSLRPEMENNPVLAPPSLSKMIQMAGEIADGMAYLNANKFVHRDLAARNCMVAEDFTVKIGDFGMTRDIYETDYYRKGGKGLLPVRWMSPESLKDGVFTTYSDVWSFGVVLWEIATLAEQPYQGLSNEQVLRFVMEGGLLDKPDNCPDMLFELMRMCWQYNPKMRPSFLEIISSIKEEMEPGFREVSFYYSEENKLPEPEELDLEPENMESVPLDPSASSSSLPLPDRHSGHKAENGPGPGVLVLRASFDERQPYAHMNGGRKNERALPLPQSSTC
# test protocol: IGF1R kinase assay (LCCA), IGF 3P
# Type: biochemical
# run conditions: IGF1R kinase LCCA assay
# Protocol: Kinase activity and compound inhibition are investigated using one or more of the three assay formats described below. The ATP concentrations for each assay are selected to be close to the Michaelis-Menten constant (KM) for each individual kinase. […] IGF1R kinase biochemical activity was assessed using a Luciferase-Coupled Chemiluminescent Kinase assay (LCCA) format. Kinase activity was measured as the percent ATP remaining following the kinase reaction. […]
measured attribute: IC50

Record excerpt, results attached:
molecule	IC50
Clc1ccccc1Nc1ncc(Cl)c(Nc2cc(C3CC3)[nH]n2)n1 [Example 101]	50 to 500 nM
c1ccc(CN2CCc3c(nc(Nc4ccc(N5CCOCC5)cc4)nc3Nc3cc(C4CC4)[nH]n3)C2)cc1 [Example 281]	> 5000 nM
Fc1ccc(Nc2ncc(Br)c(Nc3cc(C4CC4)n[nH]3)n2)c(Br)c1 [Example 121]	50 to 500 nM
Clc1ccc(CCNc2ncc(Br)c(Nc3cc(C4CC4)n[nH]3)n2)c(Cl)c1 [Example 240]	500 to 5000 nM

Okay, now this molecule:
[Q] So what's the measured IC50 for this one? CN(Cc1ccccc1Cl)c1ncc(Br)c(Nc2cc(C3CC3)[nH]n2)n1 [Example 204]
[A] 500 to 5000 nM

###

# assay target: (Homo sapiens, UniProt P08069)
# Construct: human IGF1R kinase domain residues M954-C1367; made in house; host or cells: baculovirus expression (insect cells)
# Sequence (P08069 954-1367): as above
# test protocol: IGF1R kinase assay (LCCA), IGF 0P
# Type: biochemical
# run conditions: IGF1R kinase LCCA assay
pIC50: −log10 of the molar value.
Entries annotated with measured pIC50

compound	pIC50
Cc1cc(C)cc(Nc2nc(C)cc(Nc3cc(C4CC4)n[nH]3)n2)c1 [Example 270]	5.30 to 6.30

[Q] # get_value(readout= pIC50, system= (Homo sapiens, UniProt P08069)) for Cc1cc(Nc2cc(C3CC3)[nH]n2)nc(NCc2cc(-c3cccc(Cl)c3)no2)n1 [Example 538]
[A] 6.30 to 7.30

[Q] Check CC(=O)NCC1CC(n2cc(-c3cccc(OCc4ccccc4)c3)c3c(NC(C)=O)ncnc32)C1 (stereo not drawn) [Example 346] too.
[A] < 5.30

[Q] Check O=[N+]([O-])c1cnc(Nc2ccc(Cl)cc2Cl)nc1Nc1cc(C2CC2)n[nH]1 [Example 331] too.
[A] < 5.30

[Q] Check Cc1cc(Nc2cc(C)on2)nc(NCc2cc(-c3ccccc3)no2)n1 [Example 307] too.
[A] < 5.30

[Q] Check Nc1ncnc2c1c(-c1cccc(OCc3ccccc3)c1)cn2C1CCCCC1 [Example 350] too.
[A] < 5.30

[Q] Check NCCCCn1cc(-c2cccc(OCc3ccccc3)c2)c2c(N)ncnc21 [Example 344] too.
[A] < 5.30

[Q] Check CC(=O)N1CCC(n2cc(-c3cccc(OCc4ccccc4)c3)c3c(N)ncnc32)CC1 [Example 349] too.
[A] < 5.30

###

Entries annotated with measured IC50
# assay target: (Homo sapiens)
# Construct: human IGF1R kinase domain residues M954-C1367; made in house; host or cells: baculovirus expression (insect cells)
# test protocol: IGF1R kinase assay (LCCA), IGF 0P
# Assay type: biochemical
# run conditions: IGF1R kinase LCCA assay
# Protocol: Kinase activity and compound inhibition are investigated using one or more of the three assay formats described below. The ATP concentrations for each assay are selected to be close to the Michaelis-Menten constant (KM) for each individual kinase. […] IGF1R kinase biochemical activity was assessed using a Luciferase-Coupled Chemiluminescent Kinase assay (LCCA) format. Kinase activity was measured as the percent ATP remaining following the kinase reaction. […]

Record excerpt, results attached:
molecule	assay target	IC50
CN1CCC(Oc2cc(Nc3cc(C4CC4)[nH]n3)nc(NCc3cc(-c4ccccc4)no3)n2)C1 (centres unmarked)	(Homo sapiens)	0.05 to 0.5 µM
Cc1cnc(Nc2ccc(C(=O)NC3CCN(C)CC3)cc2)nc1Nc1cc(C2CC2)n[nH]1	(Homo sapiens)	0.5 to 5 µM
CC(C)c1cc(CNc2nc(NCCN3CCN(C)CC3)cc(Nc3cc(C4CC4)[nH]n3)n2)on1	(Homo sapiens)	0.5 to 5 µM
CCN(CC)CCNC(=O)c1cc2ccc(Nc3nc(C)cc(Nc4cc(C5CC5)n[nH]4)n3)cc2s1	(Homo sapiens)	0.5 to 5 µM
Cc1ccc(CNc2ncc(Br)c(Nc3cc(C4CC4)n[nH]3)n2)o1	(Homo sapiens)	0.5 to 5 µM

[Q] So what's the measured IC50 for this one? "Nc1nc(Nc2ccc(N3CCOCC3)cc2)ncc1Br"
[A] > 5 µM

[Q] Check "Cc1cc(N2CCN(C)CC2)nc(N2CCN(C)CC2)n1" too.
[A] > 5 µM

[Q] Check "Nc1cccc(Nc2nc(NCc3cc(-c4ccccc4)no3)ncc2Br)n1" too.
[A] > 5 µM

[Q] Check "Cc1cc(Nc2cc(C3CC3)n[nH]2)nc(Nc2ccc(CCC(=O)NCCCN3CCCCC3)cc2)n1" too.
[A] > 5 µM

[Q] Check "Brc1cnc(Nc2ccc3[nH]ccc3c2)nc1Nc1cc(C2CC2)n[nH]1" too.
[A] 0.05 to 0.5 µM

[Q] Check COC(=O)C1CCc2cc(Nc3nc(C)cc(Nc4cc(C5CC5)n[nH]4)n3)ccc2N1 (centres unmarked) too.
[A] 0.5 to 5 µM

[Q] Check "Cc1cc(Nc2cc(C3CC3)n[nH]2)nc(Nc2ccc(N3CCOCC3)cc2)n1" too.
[A] > 5 µM

[Q] Check "COc1cc(Nc2ncc(Br)c(Nc3cc(C4CC4)n[nH]3)n2)cc(C(F)(F)F)c1" too.
[A] > 5 µM

[Q] Check "Cc1cc(Nc2cc(C3CC3)[nH]n2)nc(NCc2cc(-c3cccc(Br)c3)no2)n1" too.
[A] 0.05 to 0.5 µM

[Q] Check "Clc1cc(Nc2ncc(Br)c(Nc3cc(C4CC4)n[nH]3)n2)cc(Cl)c1Cl" too.
[A] > 5 µM

[Q] Check "Cc1cc(Nc2cc(-c3ccco3)[nH]n2)nc(NCc2cc(-c3ccccc3)no2)n1" too.
[A] 0.5 to 5 µM

[Q] Check "Clc1ccccc1Nc1ncc(Br)c(Nc2n[nH]c3ccccc23)n1" too.
[A] > 5 µM

###

# assay target: (Homo sapiens, UniProt P08069)
# Construct: human IGF1R kinase domain residues M954-C1367; made in house; host or cells: baculovirus expression (insect cells)
# test protocol: IGF1R kinase assay (LCCA), IGF 0P
# Assay type: biochemical
# run conditions: IGF 0P
pIC50: −log10 of the molar value.
measured attribute: pIC50

[Q] So what's the measured pIC50 for this one? "CC(C)c1cc(CNc2nc(Nc3cc(C4CC4)[nH]n3)cc(N3C[C@H]4C[C@@H]3CN4Cc3ccccc3)n2)on1"
[A] 6.30 to 7.30

###

# assay target: IGF 3P (Homo sapiens)
# Construct: human IGF1R kinase domain residues M954-C1367; made in house; host or cells: baculovirus expression (insect cells)
# test protocol: IGF1R kinase assay (LCCA), IGF 3P
# Format: biochemical
# run conditions: IGF1R kinase LCCA assay
Entries annotated with measured IC50

sample smiles	IC50
CCN(CC)CCCNC(=O)c1ccc(Nc2ncc(C)c(Nc3cc(C4CC4)n[nH]3)n2)cc1	500 to 5000 nM
Nc1cnc(Nc2ccccc2Cl)nc1Nc1cc(C2CC2)n[nH]1	500 to 5000 nM
COc1cc(Nc2nc(C)cc(Nc3cc(C4CC4)[nH]n3)n2)cc(OC)c1	> 5000 nM
CN1CCN(c2ncc(Br)c(Nc3cc(C4CC4)[nH]n3)n2)CC1	500 to 5000 nM

[Q] So what's the measured IC50 for this one? "CC(C)c1cc(CNc2nc(Cl)cc(Nc3cc(C(C)C)[nH]n3)n2)on1"
[A] < 50 nM

[Q] Check "CNCCc1ccc(Nc2nc(C)cc(Nc3cc(C4CC4)n[nH]3)n2)cc1" too.
[A] 500 to 5000 nM

[Q] Check "CN1CCN(C(=O)CCc2ccc(Nc3ncc(Br)c(Nc4cc(C5CC5)[nH]n4)n3)cc2)CC1" too.
[A] 50 to 500 nM

[Q] Check "Brc1cnc(NCc2nccs2)nc1Nc1cc(C2CC2)[nH]n1" too.
[A] 500 to 5000 nM

[Q] Check "CN1CCN(C(=O)c2cc(Nc3cc(C4CC4)[nH]n3)nc(NCc3cc(-c4ccccc4)no3)n2)CC1" too.
[A] < 50 nM

[Q] Check "Cc1cc(Nc2cc(C3CC3)n[nH]2)nc(Nc2ccc3c(c2)CN(C(=O)OC(C)(C)C)CC3)n1" too.
[A] 500 to 5000 nM

[Q] Check "COc1ccc(CNc2ncc(Br)c(Nc3cc(C4CC4)n[nH]3)n2)cc1OC" too.
[A] 500 to 5000 nM
